src = patent US12636285B2

test protocol: Binding to human plasma proteins
Assay type: in vitro ADME
condition notes: read-out: % Bound to human plasma proteins (converted)
measured attribute: fraction unbound
Reply: number alone, nothing else.

# lookup: fraction unbound of Cc1cc(/C=C/C#N)cc(C)c1Nc1ccnc(Nc2ccc(C#N)cc2)n1
0.003

====

test protocol: Drug interaction studies with oral rilpivirine
condition notes: rilpivirine 25 mg once daily; No Effect = 1.00
Reported Geometric Mean Ratio of coadministered drug Cmax with/without EDURANT values for a set of compounds
Response field accepts a number only; no unit should be typed.

C[C@H]1O[C@@H](O[C@H]2[C@@H](O)C[C@H](O[C@H]3[C@@H](O)C[C@H](O[C@H]4CC[C@@]5(C)[C@H](CC[C@@H]6[C@@H]5C[C@@H](O)[C@]5(C)[C@@H](C7=CC(=O)OC7)CC[C@]65O)C4)O[C@@H]3C)O[C@@H]2C)C[C@H](O)[C@@H]1O [Digoxin] = 1.06
Cc1nnc(C(=O)NC(C)(C)c2nc(C(=O)NCc3ccc(F)cc3)c(O)c(=O)n2C)o1 [Raltegravir] = 1.10
C#C[C@]1(O)CC[C@H]2[C@@H]3CCc4cc(O)ccc4[C@H]3CC[C@@]21C [Ethinyl estradiol] = 1.17
C#C[C@]1(O)CC[C@H]2[C@@H]3CCC4=CC(=O)CC[C@@H]4[C@H]3CC[C@@]21C [Norethindrone] = 0.94

Now for another entry.
Look up Geometric Mean Ratio of coadministered drug Cmax with/without EDURANT for this compound: CN(C)C(=N)N=C(N)N [Metformin]
1.02

====

test protocol: Drug interaction studies with oral rilpivirine
condition notes: rilpivirine 150 mg once daily; No Effect = 1.00
Where a name gives a salt, the structure may show the parent alone.
Response field label: string, one of Y (Geometric Mean Ratio of coadministered drug Cmax with/without EDURANT strictly below 1) or N.

CC(C)OC(=O)OCOP(=O)(CO[C@H](C)Cn1cnc2c(N)ncnc21)OCOC(=O)OC(C)C [Tenofovir disoproxil fumarate] = N
CC(=O)N1CCN(c2ccc(OCC3COC(Cn4ccnc4)(c4ccc(Cl)cc4Cl)O3)cc2)CC1 (stereo not shown) = Y
CC(C)c1c(C(=O)Nc2ccc(O)cc2)c(-c2ccccc2)c(-c2ccc(F)cc2)n1CC[C@@H](O)C[C@@H](O)CC(=O)O [4-hydroxy-atorvastatin] = N
O=c1[nH]cnc2c1ncn2[C@H]1CC[C@@H](CO)O1 = Y

Please examine the following record next.
Say whether its Geometric Mean Ratio of coadministered drug Cmax with/without EDURANT is strictly beneath 1. Entry: CC(=O)Nc1ccc(O)cc1
Y

====

test protocol: Multiple-dose pharmacokinetics after monthly IM injections, population PK post-hoc estimates FLAIR and ATLAS
Format: in vivo, human
condition notes: human, in vivo; 400-mg monthly IM injection; read-out: AUCtau, geometric mean
measured attribute: AUC (µg·h/mL)
Please respond with the number in µg·h/mL and leave the unit unwritten.

# lookup: AUC of C[C@H]1CO[C@@H]2Cn3cc(C(=O)NCc4ccc(F)cc4F)c(=O)c(O)c3C(=O)N12
2460

====

test protocol: Multiple-dose pharmacokinetics after monthly IM injections, population PK post-hoc estimates FLAIR and ATLAS
Format: in vivo, human
condition notes: human, in vivo; 600-mg monthly IM injection; read-out: AUCtau, geometric mean
measured attribute: AUC (ng·h/mL)
Express it in ng·h/mL; write the number only.

Name the recorded AUC for Cc1cc(/C=C/C#N)cc(C)c1Nc1ccnc(Nc2ccc(C#N)cc2)n1 .
65600
